Provenance of the data: ChEMBL document CHEMBL2406938

target: ATP-sensitive inward rectifier potassium channel 1 (Homo sapiens) (UniProt P48048)
Sequence (P48048 whole entry): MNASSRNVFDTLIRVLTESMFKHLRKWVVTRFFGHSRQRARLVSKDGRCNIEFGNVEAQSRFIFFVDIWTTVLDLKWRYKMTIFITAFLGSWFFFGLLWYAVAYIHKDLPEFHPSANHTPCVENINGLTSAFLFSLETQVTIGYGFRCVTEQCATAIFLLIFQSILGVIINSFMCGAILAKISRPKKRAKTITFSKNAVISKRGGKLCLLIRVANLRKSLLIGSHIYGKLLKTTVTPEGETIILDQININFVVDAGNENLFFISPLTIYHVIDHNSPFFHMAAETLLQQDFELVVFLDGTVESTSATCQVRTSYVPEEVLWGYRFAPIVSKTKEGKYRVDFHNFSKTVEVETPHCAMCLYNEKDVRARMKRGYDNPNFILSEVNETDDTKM
assayRemarks: Inhibition of human Kir1.1 expressed in HEK293 cells by thallium flux assay
Assay type: cell-based
propertyName: INH (µM)
Just the number in µM, nothing appended.

I'd like to know its INH. The compound in question is Cc1c([C@@H]2CN3CCN(C(=O)C4CCc5nc(-n6cnnn6)ccc54)C[C@H]3CO2)ccc(F)c1C#N (some centres not stated)
0.14

I'd like to know its INH. The compound in question is O=C1OCc2cc([C@@H]3CN4CCN(C(=O)C5CCc6nc(-n7cnnn7)ccc65)C[C@H]4CO3)ccc21 (some centres not stated)
0.11

I'd like to know its INH. The compound in question is Cc1c([C@@H]2CN3CCN(C(=O)C4CCc5nc(-n6cnnn6)ccc54)C[C@H]3CO2)csc1C#N (some centres not stated)
0.54

I'd like to know its INH. The compound in question is Cc1c([C@H]2CN3CCN(C(=O)C4CCc5cc(-n6cnnn6)ncc54)C[C@H]3CN2)ccc(F)c1C#N (some centres not stated)
0.18

I'd like to know its INH. The compound in question is N#Cc1c(F)ccc([C@@H]2CN3CCN(C(=O)C4CCc5nc(-n6cnnn6)ncc54)C[C@@H]3CO2)c1Cl (some centres not stated)
0.17

Continuing:
I'd like to know its INH. The compound in question is N#Cc1c(F)ccc([C@@H]2CN3CCN(C(=O)C4CCc5cc(-n6cnnn6)ncc54)C[C@H]3CO2)c1F (some centres not stated)
0.16

I'd like to know its INH. The compound in question is Cc1c([C@H]2CN3CCN(C(=O)C4CCc5nc(-n6cnnn6)ccc54)C[C@H]3CN2)ccc(F)c1C#N (some centres not stated)
0.16

###

Catalogue of INH values
target: ATP-sensitive inward rectifier potassium channel 1 (Homo sapiens)
assayRemarks: Inhibition of human Kir1.1 expressed in CHO cells by whole cell voltage clamp assay
Format: cell-based
Just the number in µM, nothing appended.

Consider the worked cases shown below.
Give the reported INH for Cc1c([C@H]2CN3CCN(C(=O)C4CCc5cc(-n6cnnn6)ncc54)C[C@H]3CN2)ccc(F)c1C#N (stereo partly drawn) (system: ATP-sensitive inward rectifier potassium channel 1 (Homo sapiens)).
0.1

Give the reported INH for Cc1c([C@@H]2CN3CCN(C(=O)C4CCc5nc(-n6cnnn6)ccc54)C[C@H]3CO2)ccc(F)c1C#N (stereo partly drawn) (system: ATP-sensitive inward rectifier potassium channel 1 (Homo sapiens)).
0.08

Give the reported INH for Cc1c([C@@H]2CN3CCN(C(=O)C4CCc5nc(-n6cnnn6)ccc54)C[C@H]3CO2)csc1C#N (stereo partly drawn) (system: ATP-sensitive inward rectifier potassium channel 1 (Homo sapiens)).
0.06

Give the reported INH for N#Cc1c(F)ccc([C@@H]2CN3CCN(C(=O)C4CCc5nc(-n6cnnn6)ncc54)C[C@@H]3CO2)c1Cl (stereo partly drawn) (system: ATP-sensitive inward rectifier potassium channel 1 (Homo sapiens)).
0.06

Give the reported INH for N#Cc1c(F)ccc([C@@H]2CN3CCN(C(=O)C4CCc5cc(-n6cnnn6)ncc54)C[C@H]3CO2)c1F (stereo partly drawn) (system: ATP-sensitive inward rectifier potassium channel 1 (Homo sapiens)).
0.04

Give the reported INH for O=C1OCc2cc([C@@H]3CN4CCN(C(=O)C5CCc6nc(-n7cnnn7)ccc65)C[C@H]4CO3)ccc21 (stereo partly drawn) (system: ATP-sensitive inward rectifier potassium channel 1 (Homo sapiens)).
0.09

Continuing:
Give the reported INH for Cc1c([C@H]2CN3CCN(C(=O)C4CCc5nc(-n6cnnn6)ccc54)C[C@H]3CN2)ccc(F)c1C#N (stereo partly drawn) (system: ATP-sensitive inward rectifier potassium channel 1 (Homo sapiens)).
0.09

Give the reported INH for O=C1OCc2cc([C@H]3CN4CCN(C(=O)C5CCc6cc(-n7cnnn7)ncc65)C[C@H]4CO3)ccc21 (stereo partly drawn) (system: ATP-sensitive inward rectifier potassium channel 1 (Homo sapiens)).
0.06
